Target: hAT1R (Homo sapiens, UniProt P30556)
Sequence (P30556 whole entry): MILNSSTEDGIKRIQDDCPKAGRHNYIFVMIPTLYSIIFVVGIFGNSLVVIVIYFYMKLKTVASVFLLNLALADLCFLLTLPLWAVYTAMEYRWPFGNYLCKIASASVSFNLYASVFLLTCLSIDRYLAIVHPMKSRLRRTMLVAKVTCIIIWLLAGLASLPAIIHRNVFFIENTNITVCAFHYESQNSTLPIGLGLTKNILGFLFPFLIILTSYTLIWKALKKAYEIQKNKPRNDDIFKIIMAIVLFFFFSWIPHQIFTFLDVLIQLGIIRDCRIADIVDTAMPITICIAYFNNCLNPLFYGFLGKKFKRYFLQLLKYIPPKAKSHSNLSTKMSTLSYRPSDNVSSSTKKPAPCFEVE
Experiment: BRET Gq biosensor assay, agonist response, HEK293 cells
Type: cell-based
Settings: section of the 42nd table directly before the BRET P63 section
Description: BRET β-arrestin2 and Gq Activation Assays In another aspect of the invention, association of the ATIR with signaling proteins is assessed using bioluminescence resonance energy transfer assays (Stephane Angers, Ali Salahpour et al. 2002). This technology measures the association between bioluminescent and fluorescent protein tags. Several of the plasmid constructs used in BRET experiments were previously described. […]
pEC50: −log10 of the molar value.
# maps each entry to its pEC50
MEASUREMENT TYPE: pEC50

> print(dat)
                              record.smiles                   experimental.target  bound.operator  obs.value
1  CCCCc1ncc(C(=O)N[C@@H](CC)C2CC2)n1Cc1ccc(-c2cc(-c3ccccc3)ccc2-c2nn[nH]n2)cc1  hAT1R (Homo sapiens, UniProt P30556)               =       6.76
2  CCCCC(=O)N(Cc1ccc(-c2cc(Oc3cccc(OC(F)(F)F)c3)ccc2-c2nn[nH]n2)cc1)[C@H](C(=O)O)C(C)C  hAT1R (Homo sapiens, UniProt P30556)               <       4.00
3  CCCCC(=O)N(Cc1ccc(-c2cc(-c3cccc(C)n3)ccc2-c2nn[nH]n2)cc1)[C@H](C(=O)O)C(C)C  hAT1R (Homo sapiens, UniProt P30556)               =       6.59

###

Listed below: EC50 values for each entry.
target: AGTR1 (Homo sapiens); construct: host or cells: Pathunter CHO-K1 AGTR1 β-arrestin cell line (CHO-K1); assay: DiscoveRx β-arrestin2 recruitment assay (enzyme complementation, Pathunter CHO-K1 AGTR1 β-arrestin cell line); format: cell-based; conditions: DiscoveRx β-arrestin2 recruitment
Sequence (P30556 whole entry): as above
MEASUREMENT TYPE: EC50 (µM)

> print(dat)
                               record.smiles   experimental.target  unit.string  obs.value
 1  CCCCC1=NC2(CCCC2)C(=O)N1Cc1ccc(-c2cc(-c3ccc(CO)cc3)ccc2-c2nn[nH]n2)cc1  AGTR1 (Homo sapiens)           µM     0.0053
 2  CCCCC(=O)N(Cc1ccc(-c2cc(-c3ccccc3)ccc2-c2nn[nH]n2)cc1)[C@H](C(=O)O)C(C)C  AGTR1 (Homo sapiens)           µM     0.0403
 3  CCc1nc2c(C)cc(C)nc2n1Cc1ccc(-c2cc(-c3cccn3C)ccc2-c2nn[nH]n2)cc1  AGTR1 (Homo sapiens)           µM     0.0103
 4  CCc1nc2c(C)cc(C)nc2n1Cc1ccc(-c2cc(C3=NCCC3)ccc2-c2nn[nH]n2)cc1  AGTR1 (Homo sapiens)           µM     0.0602
 5  CCOc1nc2cccc(C(=O)O)c2n1Cc1ccc(-c2cc(-c3cc(C)ccn3)ccc2-c2noc(=O)[nH]2)cc1  AGTR1 (Homo sapiens)           µM     0.0077
 6  CCCCC1=NC2(CCCC2)C(=O)N1Cc1ccc(-c2cc(-c3ccc(C)cc3)ccc2-c2nn[nH]n2)cc1  AGTR1 (Homo sapiens)           µM     0.0161
 7  CCCCC1=NC2(CCCC2)C(=O)N1Cc1ccc(-c2cc(-c3cccc(F)c3F)ccc2-c2nn[nH]n2)cc1  AGTR1 (Homo sapiens)           µM     0.0137
 8  CCCCc1nc(Cl)c(C(=O)O)n1Cc1ccc(-c2cc(N3CCc4ccccc43)ccc2-c2noc(=O)[nH]2)cc1  AGTR1 (Homo sapiens)           µM      0.009
 9  CCc1nc2c(C)cc(C)nc2n1Cc1ccc(-c2cc(N3CCCCC3)ccc2-c2nn[nH]n2)cc1  AGTR1 (Homo sapiens)           µM     0.0606
10  CCCCC1=NC2(CCCC2)C(=O)N1Cc1ccc(-c2cc(N3CCC(C)(C)CC3)ccc2-c2nn[nH]n2)cc1  AGTR1 (Homo sapiens)           µM       0.03
11  CCc1nc2c(C)cc(C)nc2n1Cc1ccc(-c2cc(Oc3ccc(F)cc3F)ccc2-c2nnn[nH]2)cc1  AGTR1 (Homo sapiens)           µM     0.0208
12  CCCCC(=O)N(Cc1ccc(-c2cc(-c3ccc4ncccc4c3)ccc2-c2nn[nH]n2)cc1)[C@H](C(=O)O)C(C)C  AGTR1 (Homo sapiens)           µM      0.101
13  CCc1nc2c(C)cc(C)nc2n1Cc1ccc(-c2cc(-n3ccc4cc(F)ccc43)ccc2-c2nn[nH]n2)cc1  AGTR1 (Homo sapiens)           µM     0.0182
14  CCCCc1ncc(C(=O)NCCC(C)(C)O)n1Cc1ccc(-c2cc(-c3ccccc3)ccc2-c2nn[nH]n2)cc1  AGTR1 (Homo sapiens)           µM     0.0083
